Organism: Homo sapiens
Assay info: Selectivity index, ratio of Ki for human vasopressin V1a receptor to Ki for human vasopressin V1b receptor
Recorded endpoint: Ratio Ki
Could you respond with only the numeric value?

Record excerpt, results attached:
> print(dat)
                                   molecule  data.value
1  CCOc1ccc(OC)cc1C1(N2CCN(c3ccncc3)CC2)C(=O)N(S(=O)(=O)c2ccc(OC)c3cccnc23)c2ccc(C#N)cc21 (stereo unspecified)          84
2  COc1ccc(S(=O)(=O)N2C(=O)C(c3cccnc3OC)(N3CCN(C)C(=O)[C@H]3C)c3cc(Cl)ccc32)c(OC)c1 (stereo partly specified)           1

### Prompt I am curious: what Ratio Ki value has been reported for CCOc1cc(OC)ccc1C1(N2CCN(c3ccncc3)CC2)C(=O)N(S(=O)(=O)c2ccc(OC)cc2OC)c2ccc(C#N)cc21 (stereo unspecified) ?
### Response 34

### Prompt What would you report for CCOc1ccc(OC)cc1C1(N2CCN(c3ccncc3)CC2)C(=O)N(S(=O)(=O)c2ccc(F)c3cccnc23)c2ccc(C#N)cc21 (stereo unspecified) ?
### Response 39

### Prompt What would you report for CCOc1ccc(OC)cc1C1(N2CCN(c3ccncc3)CC2)C(=O)N(S(=O)(=O)c2ccc(OC)cc2OC)c2ccc(C#N)cc21 (stereo unspecified) ?
### Response 21

### Prompt What would you report for COc1ccc(S(=O)(=O)N2C(=O)C(c3cccnc3OC)(N3CCN(c4cccnc4)C(=O)C3)c3cc(Cl)ccc32)c(OC)c1 (stereo unspecified) ?
### Response 1
